Test system: NIH3T3
Experiment: Cytotoxic Profiling of Annotated Libraries Using Quantitative High-Throughput Screening (AID 1296008); further: nearly all actives have a fitted effect of over 60% in size
Details: Five cell lines viability, CellTiter-Glo ATP luminescence, 48-72 h
Records with an inconclusive call do not appear. Active and inactive are the calls of the source. The call rests on the fitted dose curve; in most records, active means well fitted inhibition curve with a large enough effect; inconclusive means small, poorly fitted or top-dose-only effect; inactive means flat fitted curve, though single readings scatter.
Outcome (select one): active, inactive

Take a look at these entries with their results.
                                   compound  assigned_class
0  CC(=O)O[C@]1(C(C)=O)CC[C@H]2[C@@H]3C=C(Cl)C4=CC(=O)[C@@H]5C[C@H]5[C@]4(C)[C@@H]3CC[C@@]21C        inactive
1  CC[C@H](C)n1cc(C)c2c(C(=O)NCc3c(C)cc(C)[nH]c3=O)cc(-c3ccc(N4CCNCC4)nc3)cc21        inactive

Recorded test outcome, item C[C@H]1COC2=C1C(=O)C(=O)c1c2ccc2c1CCCC2(C)C inactive

Please indicate how the test categorized C[C@]12CC[C@@H]3c4ccc(O)cc4CC[C@H]3[C@H]1[C@@H](O)[C@@H](O)[C@H]2O . inactive

Hi team, can someone confirm the assay call for CCCCN(CCCC)CC(O)c1cc(Cl)cc2c1-c1ccc(Cl)cc1C2=Cc1ccc(Cl)cc1 (centres undefined) ? inactive

GET /call?item= CC(C)CN(C[C@@H](O)[C@H](Cc1ccccc1)NC(=O)O[C@H]1CO[C@H]2OCC[C@H]21)S(=O)(=O)c1ccc(N)cc1 returns the recorded outcome of this test. inactive

Check the results log: what was the call for O=C(c1ccc(C=Cc2n[nH]c3ccccc23)cc1)N1CCNCC1 ? active

Give the logged outcome of this assay for the following compound: COc1ccc(CCC(=O)Nc2nc3ccc(Cl)cc3s2)cc1OC inactive

Check the results log: what was the call for CCN1CCN(c2ccc(Nc3cc(N(C)C(=O)Nc4c(Cl)c(OC)cc(OC)c4Cl)ncn3)cc2)CC1 ? inactive

====

Experiment: qHTS of pediatric cancer cell lines to identify multiple opportunities for drug repurposing: Primary screen for SK-N-MC cells (AID 1347093)
Conditions: SK-N-MC viability, CellTiter-Glo luminescence, 48 h; series mostly up to 46 µM
Inconclusive results are not listed. Activity calls are given as the source filed them. The call rests on the fitted dose curve; in most records, active means well fitted cell-killing curve with a large enough effect; inconclusive means small, poorly fitted or top-dose-only effect; inactive means no such curve, though single readings can be large or run the other way.
One label from this list, please: active, inactive

Consider the following illustrative entries.
structure.as.smiles	assigned.class
Cc1ccccc1C(=O)c1ccc(Nc2ccc(Br)cc2N)cc1Cl	active
CC(=O)NCCC(=O)N[C@@H](CCC(N)=O)C(=O)N[C@@H](CO)C(=O)N[C@@H](CCC(N)=O)C(=O)N[C@@H](CCC(N)=O)C(=O)N[C@H](C(=O)N[C@@H](Cc1ccccc1)C(=O)N[C@]1(C)CCCCCCC=CCCC[C@@](C)(C(=O)N[C@@H](CCC(N)=O)C(=O)N[C@@H](CC(N)=O)C(N)=O)NC(=O)[C@H](CC(C)C)NC(=O)[C@H](CC(C)C)NC(=O)[C@@H](CCCNC(=N)N)NC(=O)[C@H](Cc2c[nH]c3ccccc23)NC(=O)[C@H](CC(C)C)NC(=O)[C@H](CC(N)=O)NC1=O)[C@H](C)O	inactive
C[C@]12C=CC(=O)C=C1CC[C@@H]1[C@@H]2[C@@H](O)C[C@@]2(C)[C@@H]1CC[C@]2(O)C(=O)CO	active
C[C@@]1(C(=O)Nc2ccc(F)nc2)CCCN1c1nc(Nc2cc(C3CC3)[nH]n2)c2cccn2n1	active
CC1CCN(c2cc(N3CCN(C)CC3)ccc2NC(=O)c2cc(C#N)c[nH]2)CC1	inactive

Record request — test call for C=CC(=O)Nc1cccc(Sc2nc(Nc3ccc(N4CCN(C)CC4)cc3)ncc2Cl)c1 active

Dear all, I need the recorded test outcome for COc1c(C)c2c(c(O)c1CC=C(C)CCC(=O)OCCN1CCOCC1)C(=O)OC2 , thank you. active

Status in this test for O=C(O)C1=CO[C@@H](O[C@@H]2O[C@H](CO)[C@H](O)[C@H](O)[C@H]2O)[C@@H]2C(CO)=CC[C@H]12 ? inactive
